I'd appreciate it if you could supply solubility kinetic values for the items below.
conditions: buffer; pH 7.4; 200.0 µM

Answered cases to consult:
smiles_code=Cc1ccc(NC(=O)N(C)c2ccccc2)cc1 measured_endpoint="solubility kinetic" measured_value="> 36 µg/mL"
smiles_code=Cc1cc(=O)[nH]c(SCC(=O)NC2CCCCCC2)n1 measured_endpoint="solubility kinetic" measured_value="> 44.3 µg/mL"
smiles_code=CC(=O)N1CCN(c2nnc(-c3ccc(C)cc3)c3ccccc23)CC1 measured_endpoint="solubility kinetic" measured_value="> 52 µg/mL"
smiles_code=CCOc1ccc2cc(S(=O)(=O)N3CCCCC3)ccc2c1 measured_endpoint="solubility kinetic" measured_value="< 0.7 µg/mL"
smiles_code=O=C(O)/C=C/C(=O)Nc1ccc(OC(F)F)cc1 measured_endpoint="solubility kinetic" measured_value="> 38.6 µg/mL"

Give me solubility kinetic for each of these compounds, listed below.
1. Cc1cc(C(=O)OCC(=O)NC(C)C)c2ccccc2n1
2. Cn1ccc(/C=N/N=C2/NC(=O)CS2)n1

1. > 42.9 µg/mL
2. > 33.5 µg/mL

Give me solubility kinetic for each of these compounds, listed below.
1. CCOn1c(=O)c(-c2ccccc2)[n+]([O-])c2ccccc21
2. CCOc1ccc(NC(=O)Nc2ccc3c(c2)CCC3)cc1

["> 42.3 µg/mL", "< 0.3 µg/mL"]

====

I'd appreciate it if you could supply solubility kinetic values for the items below.
conditions: buffer; pH 7.4; 200.0 µM

compound=O=C(OCC(=O)N1CCOCC1)c1cc(F)c(F)cc1Cl measured_value="> 48 µg/mL"
compound="COc1ccc2cc(S(=O)(=O)N3CCCC(C)C3)ccc2c1 (stereo not drawn)" measured_value="< 0.7 µg/mL"

Lab note: next compound to report on.
Query COc1ccc(-c2cc(-c3ccccc3)c(C#N)c(SCC(=O)O)n2)cc1 yields solubility kinetic of > 56.5 µg/mL

====

conditions: buffer; pH 7.4; 200.0 µM
I'd appreciate it if you could supply solubility kinetic values for the items below.
Answers are plain numbers, in µg/mL.

Answered cases to consult:
compound=Cc1ccc(Nc2ncnc(N)n2)cc1 measured_endpoint="solubility kinetic" units_of_measure=µg/mL measured_value=29.5
compound=CC(C)(C)NC(=O)CSc1nc2ccccc2c(=O)[nH]1 measured_endpoint="solubility kinetic" units_of_measure=µg/mL measured_value=30.9

Give me solubility kinetic for each of these compounds, listed below.
1. NC1=C(Br)C(=O)c2ccccc2C1=O
2. O=C(COC(=O)Cc1ccccc1[N+](=O)[O-])NCC1CCCCC1
3. COc1cccc(NC(=O)C(Cc2ccccc2)n2cccc2)c1 (configuration not stated)
4. O=C(/C=C/c1cccc(Br)c1)N1CCN(c2ccccn2)CC1

1. 37.3
2. 10.8
3. 27.2
4. 4.6

Give me solubility kinetic for each of these compounds, listed below.
1. O=Cc1cccc(OC(=O)Nc2ccccc2)c1
2. C=CCn1cccc(C(=O)Nc2ccc(C)c(C)c2)c1=O
3. Cn1cnc([N+](=O)[O-])c1C(=O)Nc1cccc([N+](=O)[O-])c1
4. N#CCN1CCC2(O)CCCCC2C1c1ccc2c(c1)OCO2 (configuration not stated)
5. COC(=O)C1CN(C(=O)COc2cc(C)cc(C)c2)c2ccccc2O1 (configuration not stated)
6. COc1ccc(N2C(=O)CC(c3ccc([N+](=O)[O-])cc3)C2=O)cc1 (configuration not stated)
7. COc1ccc(/C=C(\C)c2nc(C)c(-c3ccccc3)c(=O)[nH]2)cc1

[29.2, 33.4, 11.2, 42, 3.7, 14.9, 1.4]

Give me solubility kinetic for each of these compounds, listed below.
1. O=C(Cc1csc(-c2ccccc2)n1)NCc1ccco1
2. CCOc1ccc(N2C=Nc3ccc(OCC)cc3C2)cc1

39.1
11.6

meta.source: PubChem BioAssay AID1996
